molecular target: SGLT1 (Homo sapiens, UniProt P13866); construct: The full-length SGLT1 cDNA was obtained by PCR with forward primer; expressed in transfected cells; test: 1-NBDG uptake in HEK293 cells stably expressing SGLT1; assay type: cell-based; details: HEK293, compound at 10 μM; triplicate; read-out: SGLT1 inhibitory rates
Sequence (P13866 whole entry): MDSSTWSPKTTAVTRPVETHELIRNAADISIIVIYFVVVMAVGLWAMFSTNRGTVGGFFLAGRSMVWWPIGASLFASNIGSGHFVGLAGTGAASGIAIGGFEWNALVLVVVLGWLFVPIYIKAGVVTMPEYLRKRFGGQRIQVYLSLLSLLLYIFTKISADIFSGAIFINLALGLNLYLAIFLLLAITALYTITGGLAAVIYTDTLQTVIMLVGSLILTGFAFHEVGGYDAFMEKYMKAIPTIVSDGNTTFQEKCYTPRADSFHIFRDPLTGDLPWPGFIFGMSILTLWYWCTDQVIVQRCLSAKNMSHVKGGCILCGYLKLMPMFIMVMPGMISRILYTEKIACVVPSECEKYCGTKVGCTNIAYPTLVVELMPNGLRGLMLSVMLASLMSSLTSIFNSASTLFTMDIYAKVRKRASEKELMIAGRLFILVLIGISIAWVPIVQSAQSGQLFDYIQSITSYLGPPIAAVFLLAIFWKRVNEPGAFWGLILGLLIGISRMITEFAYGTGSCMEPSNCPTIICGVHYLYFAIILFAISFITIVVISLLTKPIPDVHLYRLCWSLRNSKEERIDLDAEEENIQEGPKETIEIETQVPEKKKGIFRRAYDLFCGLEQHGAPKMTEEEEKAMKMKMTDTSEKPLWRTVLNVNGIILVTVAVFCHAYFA
recorded.endpoint: inhibition at 10 µM (%)
Answer format: numeric, % implied, no suffix.

Any idea what its inhibition at 10 µM is? The compound is CCCCc1ccc(Cc2c(O)cc(O)c(C3OC(CO)C(O)C(O)C3O)c2O)cc1 (stereo not drawn) [Compound 47a]
17.1

Same again, this time with OCC1OC(c2c(O)cc(O)c(Cc3ccc(-c4ccccc4)cc3)c2O)C(O)C(O)C1O (stereo not drawn) [Compound 50a]
27.1

// same read-out, input: Cc1ccc(Cc2c(O)cc(O)c(C3OC(CO)C(O)C(O)C3O)c2O)cc1 (stereo not drawn) [Compound 46a]
50.4

OCC1OC(c2c(O)cc(O)c(Cc3ccc(Cl)cc3)c2O)C(O)C(O)C1O (stereo not drawn) [Compound 49a] ?
34.7

OCC1OC(c2c(O)cc(O)c(Cc3ccc4nccnc4c3)c2O)C(O)C(O)C1O (stereo not drawn) [Compound 44a] , same question.
31.8

Now consider CCOc1ccc(Cc2cc([C@@H]3O[C@H](CO)[C@@H](O)[C@H](O)[C@H]3O)ccc2Cl)cc1 [Dapagliflozin, reference compound] and answer again.
98.4
